- EXPERIMENTAL_SYSTEM: 6xHis-tagged AIFM1(103–613) (UniProt O95831 103-613)
- Sequence (O95831 103-613): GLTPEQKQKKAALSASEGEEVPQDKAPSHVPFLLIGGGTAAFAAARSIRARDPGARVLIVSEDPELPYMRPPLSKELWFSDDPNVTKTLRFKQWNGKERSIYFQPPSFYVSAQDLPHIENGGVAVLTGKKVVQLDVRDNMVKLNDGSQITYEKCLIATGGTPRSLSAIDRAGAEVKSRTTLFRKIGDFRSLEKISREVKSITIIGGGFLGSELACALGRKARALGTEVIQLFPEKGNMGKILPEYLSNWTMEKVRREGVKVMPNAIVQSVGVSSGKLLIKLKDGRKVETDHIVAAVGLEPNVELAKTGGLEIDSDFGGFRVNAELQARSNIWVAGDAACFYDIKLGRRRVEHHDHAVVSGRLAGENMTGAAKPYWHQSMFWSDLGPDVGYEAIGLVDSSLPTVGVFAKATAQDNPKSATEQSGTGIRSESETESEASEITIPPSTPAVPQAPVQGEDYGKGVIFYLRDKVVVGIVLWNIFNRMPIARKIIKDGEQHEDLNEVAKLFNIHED
- MEASUREMENT_NOTES: ITC
Ends that are not written are not given here.
PROPERTY_LABEL: Kd (nM)
Give bare numbers, in nM.

stdin: Using known records, supply Kd for GSEGKDRIIFVTKEDHETPSSAEL-NH2 [CHCHD4/MIA40 peptide (unlabeled), GSEGKDRIIFVTKEDHETPSSAEL-NH2]
stdout: 2940

Just for reference, paper PMC9434101 is where these values come from.
